melting point overview

The cases that follow already have their melting point on record.
INSERT INTO assay_data (compound, property_measured, result_value) VALUES
  ('Cc1cc(Cl)ccc1CNC(=O)CCc1oc(-n2cnc3ccccc32)nc1-c1ccc(Cl)cc1', 'melting point', '200 to 201 °C'),
  ('CCOP(=O)(Cc1ccc(NC(=O)CCc2oc(-c3cccs3)nc2-c2ccc(Cl)cc2)cc1)OCC', 'melting point', '164 to 165 °C'),
  ('CCOC(=O)Cc1ccc(NC(=O)CCc2oc(-n3cnc4ccccc43)nc2-c2ccc(Cl)cc2)cc1', 'melting point', '181 to 182 °C'),
  ('COc1ccc(-c2nc(-c3ccc(Cl)cc3)c(CCC(N)=O)o2)cc1', 'melting point', '215 to 216 °C'),
  ('Cc1ccc(Cl)cc1CNC(=O)CCc1oc(-n2cnc3ccccc32)nc1-c1ccc(Cl)cc1', 'melting point', '217 to 219 °C');

Entry under test: Cc1ccc(CNC(=O)CCc2oc(-n3cnc4ccccc43)nc2-c2ccc(Cl)cc2)cc1 [Example 125] . Its melting point was 241 to 242 °C

CCOP(=O)(Cc1ccc(NC(=O)CCc2sc(NS(=O)(=O)c3ccccc3)nc2-c2ccc(Cl)cc2)cc1)OCC has a reported melting point of 213 to 214 °C

melting point in this record for COc1ccccc1CNC(=O)CCc1oc(-n2cnc3ccccc32)nc1-c1ccc(Cl)cc1 : 210 to 211 °C

Per the record, O=C(CCc1oc(-n2cnc3ccccc32)nc1-c1ccc(Cl)cc1)N1CCS(=O)(=O)CC1 has melting point of 227 to 228 °C

melting point reading for CSc1ccc(NC(=O)CCc2oc(-n3cnc4ccccc43)nc2-c2ccc(Cl)cc2)cc1 : 276 to 277 °C

Measured melting point, CCNC(=O)CCCc1oc(-c2ccccc2)nc1-c1ccc(Cl)cc1 : 127 to 128 °C

Looking up Cc1ccc(C)c(CNC(=O)CCc2oc(-n3cnc4ccccc43)nc2-c2ccc(Cl)cc2)c1 , I found its melting point recorded as 218 to 219 °C

# melting point (compound: CCOP(=O)(Cc1ccc(NC(=O)CCc2sc(NC(=O)c3ccccc3)nc2-c2ccc(Cl)cc2)cc1)OCC ) is 171 to 172 °C

For record NC(=O)CCc1oc(N2CCN(c3ccccc3)CC2)nc1-c1ccc(Cl)cc1 the listed melting point is 187 to 188 °C

For this compound ( CN(Cc1ccc(NC(=O)CCc2oc(-n3cnc4ccccc43)nc2-c2ccc(Cl)cc2)cc1)C1CCOCC1 ), measured melting point is 182 to 184 °C

Note to self: melting point recorded for CCOP(=O)(OCC)c1ccc(NC(=O)CCc2oc(-n3cnc4ccccc43)nc2-c2ccc(Cl)cc2)cc1 was 249 to 250 °C

Sample O=C(CCc1oc(-c2ccccc2)nc1-c1ccc(Cl)cc1)Nc1cccnc1 ; melting point observed: 204 to 205 °C

###

# melting point per record follows

Record excerpt, results attached:
INSERT INTO measurements (compound, result_value) VALUES
  ('O=C(CCc1oc(-n2cnc3ccccc32)nc1-c1ccc(Cl)cc1)NCc1cc(Cl)ccc1Cl', '205 to 207 °C'),
  ('COC(=O)c1ccc(NC(=O)CCc2sc(-c3ccccc3)nc2-c2ccc(Cl)cc2)cc1', '177 to 178 °C'),
  ('CN(C)c1ccc(NC(=O)CCc2oc(-n3cnc4ccccc43)nc2-c2ccc(Cl)cc2)cc1', '212 to 214 °C'),
  ('CCOP(=O)(Cc1ccc(NC(=O)CCCc2oc(-c3ccccc3)nc2-c2ccc(Cl)cc2)cc1)OCC', '152 to 153 °C'),
  ('COc1ccc(-c2nc(-n3cnc4ccccc43)oc2CCC(=O)N2CCC(O)CC2)cc1', '161 to 162 °C'),
  ('CCOP(=O)(OCC)c1ccc(NC(=O)CCCc2oc(-n3cnc4ccccc43)nc2-c2ccc(Cl)cc2)cc1', '162 to 163 °C'),
  ('COc1ccccc1NC(=O)CCc1oc(-n2ccnc2C)nc1-c1ccc(Cl)cc1', '153 to 154 °C'),
  ('O=C(CCCc1oc(-c2ccccc2)nc1-c1ccc(Cl)cc1)N1CCN(c2ccccc2)CC1', '104 to 105 °C'),
  ('O=C(CCc1sc(-n2cnc3ccccc32)nc1-c1ccc(Cl)cc1)NCc1cc(Br)ccc1F', '188 to 189 °C'),
  ('CCOP(=O)(Cc1ccc(NC(=O)CCc2sc(NC(=O)CCc3ccccc3)nc2-c2ccc(Cl)cc2)cc1)OCC', '208 to 209 °C');

Reported melting point of CN(CCS(C)(=O)=O)C(=O)CCc1oc(-n2cnc3ccccc32)nc1-c1ccc(Cl)cc1 : 141 to 142 °C

Attribution: patent US7183276B2
